- System: Human alphaherpesvirus 3
- EXPERIMENT_DESCRIPTION: Minimum inhibitory concentration required to reduce Varicella-Zoster virus (VZV (Oka)) virus-induced cytopathicity by 50%
- Type: functional
A collection of compounds and their measured MIC
PROPERTY_LABEL: MIC (µg/mL)

INSERT INTO assay_data (compound, value) VALUES
  ('O=c1[nH]c(=O)n([C@H]2C[C@H](O)[C@@H](CO)O2)cc1-c1ccc([N+](=O)[O-])s1', 7),
  ('O=c1[nH]c(=O)n([C@H]2C[C@H](O)[C@@H](CO)O2)cc1-c1ccc(I)s1', 0.07),
  ('O=c1[nH]c(=O)n(C2O[C@H](CO)[C@@H](O)[C@@H]2O)cc1-c1ccc(Br)s1 (some centres undefined)', 0.05),
  ('O=c1[nH]c(=O)n([C@H]2C[C@H](O)[C@@H](CO)O2)cc1/C=C/Br [BRIVUDINE]', 0.004);
